- test system: chorismate-pyruvate lyase of Azotobacter vinelandii (Azotobacter vinelandii, UniProt C1DK46)
- Sequence (C1DK46 1-183): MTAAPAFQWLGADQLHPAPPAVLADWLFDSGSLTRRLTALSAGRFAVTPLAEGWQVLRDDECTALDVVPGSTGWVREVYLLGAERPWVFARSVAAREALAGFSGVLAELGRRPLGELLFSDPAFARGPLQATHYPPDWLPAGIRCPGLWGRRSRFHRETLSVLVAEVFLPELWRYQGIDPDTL
- procedure details: Product inhibition of chorismate-pyruvate lyase activity by 4-HBA (IC50)
- stated conditions: cell lysate supernatant of strain HBA19
property label: pIC50
Scale explanation: pIC50 corresponds to minus log10 of a concentration expressed in moles per litre.

QUERY: Endpoint output: pIC50 of O=C(O)c1ccc(O)cc1 [Strain 4-HBA, 4-hydroxybenzoic acid] . Value?
RESULT: 4.16

###

- test system: chorismate-pyruvate lyase of Escherichia coli (Escherichia coli)
- Construct: made in house; host or cells: Corynebacterium glutamicum R (crude cell-lysate supernatant)
- Sequence (P26602 whole entry): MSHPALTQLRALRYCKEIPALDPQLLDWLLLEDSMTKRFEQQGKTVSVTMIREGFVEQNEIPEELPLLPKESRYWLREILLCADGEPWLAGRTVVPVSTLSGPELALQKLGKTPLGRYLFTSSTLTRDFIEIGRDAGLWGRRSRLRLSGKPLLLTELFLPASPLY
- procedure details: Product inhibition of chorismate-pyruvate lyase activity by 4-HBA (IC50)
- Format: biochemical
- stated conditions: cell lysate supernatant of strain HBA8
property label: pIC50
Scale explanation: pIC50 corresponds to minus log10 of a concentration expressed in moles per litre.

QUERY: Endpoint output: pIC50 of O=C(O)c1ccc(O)cc1 [Strain 4-HBA, 4-hydroxybenzoic acid] . Value?
RESULT: 4.17
